Consider molecules characterized by their pIC50 with Cholinesterase (Equus caballus).
Sequence (P81908 whole entry): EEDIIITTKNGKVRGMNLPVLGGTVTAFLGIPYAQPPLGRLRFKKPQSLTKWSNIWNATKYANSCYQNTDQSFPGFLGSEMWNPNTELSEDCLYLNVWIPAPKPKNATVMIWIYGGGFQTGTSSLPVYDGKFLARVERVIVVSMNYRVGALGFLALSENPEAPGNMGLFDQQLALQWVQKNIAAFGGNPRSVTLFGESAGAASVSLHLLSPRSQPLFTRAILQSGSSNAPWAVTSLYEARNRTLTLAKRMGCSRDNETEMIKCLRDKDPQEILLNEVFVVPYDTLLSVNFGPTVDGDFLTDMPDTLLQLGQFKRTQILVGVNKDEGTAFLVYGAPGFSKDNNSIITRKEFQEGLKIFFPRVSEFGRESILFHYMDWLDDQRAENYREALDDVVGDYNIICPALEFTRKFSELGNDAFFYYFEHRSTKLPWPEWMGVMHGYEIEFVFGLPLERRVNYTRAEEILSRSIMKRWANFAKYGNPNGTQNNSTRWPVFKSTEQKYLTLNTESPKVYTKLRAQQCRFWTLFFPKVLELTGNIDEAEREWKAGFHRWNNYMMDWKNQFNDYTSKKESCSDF
Here pIC50 is given on a logarithmic scale as minus log10 of the concentration in mol/L.

## Task pIC50 for "COc1ccc2c(c1)Sc1ccccc1N2NC(=O)CCN1CCN(C)CC1" ?
## Result 5.70

## Task Also "O=C(CN1CCCC1)NN1c2ccccc2Sc2ccc(Cl)cc21" , if possible.
## Result 5.37

## Task Also "CN1CCN(CCC(=O)NN2c3ccccc3Sc3cc(Cl)ccc32)CC1" , if possible.
## Result 6.05

## Task Also "O=C(CN1CCCCC1)NN1c2ccccc2Sc2ccccc21" , if possible.
## Result 6.40
